binders and their reported Reporter assay (RLU), Jurkat-Lucia NFAT, supernatant diluted by 20 times
# TEST TARGET: human CD3 on the cell surface (Jurkat cells, expanded human T cells, Jurkat-Lucia NFAT cells, human PBMC) (human, UniProt P07766 23-207; P04234 22-171; P09693 23-182)
# Sequence (P07766 23-207, chain 1 of 3): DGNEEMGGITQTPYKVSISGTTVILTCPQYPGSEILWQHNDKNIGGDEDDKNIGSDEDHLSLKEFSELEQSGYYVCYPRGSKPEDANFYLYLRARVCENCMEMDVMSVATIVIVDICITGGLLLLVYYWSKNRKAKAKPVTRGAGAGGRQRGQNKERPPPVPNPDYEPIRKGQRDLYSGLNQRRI
# Sequence (P04234 22-171, chain 2 of 3): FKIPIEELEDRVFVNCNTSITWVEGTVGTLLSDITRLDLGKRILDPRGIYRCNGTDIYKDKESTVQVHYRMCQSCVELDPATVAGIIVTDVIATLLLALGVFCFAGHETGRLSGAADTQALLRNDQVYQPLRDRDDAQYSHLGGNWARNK
# Sequence (P09693 23-182, chain 3 of 3): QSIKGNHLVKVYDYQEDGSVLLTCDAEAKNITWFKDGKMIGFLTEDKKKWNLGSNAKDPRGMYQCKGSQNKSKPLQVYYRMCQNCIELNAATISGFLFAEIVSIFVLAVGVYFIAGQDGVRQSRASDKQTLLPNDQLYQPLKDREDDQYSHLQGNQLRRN
# RUN DESCRIPTION: cell-based or functional assay
State just the number; it will be interpreted in RLU.

Answer with the recorded Reporter assay (RLU), Jurkat-Lucia NFAT, supernatant diluted by 20 times of 5-7.13 murine hybridoma antibody (supernatant) (antibody, V domains shown, Tested as hybridoma supernatant) VH: QVQLQQPGTELVKPGASVKLSCKASGYTFTSYWVHWVKQRPGQGLEWIGNINPSDGVTNYNEKFKSRATLTVDKSSSTAYMQLSSLTSEDSAVYYCTRDAYGQYYFDDWGQGTTLTVSS VL: DIVMSQSPSSLVVSAGEKVTMSCKSSQSLLNSRTRKNYLAWYQQKPGQSPKLLIYWASVRDSGVPDRFTGSGSGTDFTLTISNVQAEDLAVYYCIQSYYLRTFGGGTILEIK only.
27800

Answer with the recorded Reporter assay (RLU), Jurkat-Lucia NFAT, supernatant diluted by 20 times of 6-35.22 murine hybridoma antibody (supernatant) (antibody, V domains shown, Tested as hybridoma supernatant) VH: EVKLVESGGGLVQPGASLSLSCAASGFTFTDYYMSWVRQPPGKALEWLAMSRNKAKGHTIEYSSSVKGRFTISRDNSQSILYLQMNALRAEDSATYYCARDTYESYDGYFDVWGAGTTVIVSS VL: DIVMSQSPSSLAVSAGETVTMSCKSSQSLFNSRSRKNYLAWYQQKPGQTPKLLIYWASIRESGVPDRFTGSGSGTDFTLTISSVQAEDLAVYYCKQSYYLYTFGSGTKLEIK only.
34100

Answer with the recorded Reporter assay (RLU), Jurkat-Lucia NFAT, supernatant diluted by 20 times of 1-22.6 murine hybridoma antibody (supernatant) (antibody, V domains shown, Tested as hybridoma supernatant) VH: QIPLVQSGPELKKPGETVKISCKTSGYTFTSYGMSWVKQAPGKGLKWMGWINTYSGVPTYADDFKGRFVFSLDTSASTAFLQINNLKNEDTATYFCARLKNNPFCWGQGSTLTVFS VL: DVLMTQSPLSLPVRLGDQASISCRSSQLILHSNGNTYLEWYLQKPGQSPKLLIYKVSNRFSGVPDRFSGSGSGTDFTLKISRVEAEDLGVYYCFQGSHFPWTFGGGTKLEIK only.
8890
